# assay-details: CCTE_Shafer_MEA_dev_burst_duration_mean: CCTE's Neural Network Formation Assay for Mean Burst Duration, Shafer Lab (AID 2284045)
Active and inactive are the calls of the source. The calls were made as follows: active = hit-call score of the fitted dose curve at least 0.9, where 1 is the maximum; inactive = score below 0.9.
Would you mind answering with one of these outcomes? 1 for active, -1 for inactive

## Input What is the recorded call for this compound in the test? CCC(=O)C(CC(C)N(C)C)(c1ccccc1)c1ccccc1 (stereo unspecified)
## Output -1

## Input Assay result, entry C=C(C)C(=O)[O][Sn]([CH2]CCC)([CH2]CCC)[CH2]CCC — outcome?
## Output 1

## Input Which outcome was entered for the compound O=C1C2(Cl)C3(Cl)C4(Cl)C(Cl)(Cl)C5(Cl)C3(Cl)C1(Cl)C5(Cl)C24Cl (stereo unspecified) in this test?
## Output -1

## Input Could you please tell me the result logged for O=C(O)C(F)(F)C(F)(F)C(F)(F)C(F)(F)C(F)(F)C(F)(F)F in this assay?
## Output -1

## Input Per the assay record, what outcome was assigned to CC(=O)[O][Hg][c]1ccccc1 ?
## Output 1

## Input How did this test come out for CC(C)(C)c1cc(O)ccc1O ?
## Output -1
